Taken from patent US20230029453A1.

Reported exchange rate with Pos values are given for each entry in this list.
target-entity: HLA-A*24:02 (human)
measurement-description: UV peptide exchange; HLA class I ELISA
cond: remark: other sources report otherwise
Unit % implied. Number only.

For orientation, consider the following solved cases.
{"binder": "LLERNSFEV (here or on the partner: biotinylated heavy chain) [P73 9-mer … (TP53 G266E)]", "units-label": "%", "result": 0.5}
{"binder": "RVGNCKHLK (here or on the partner: biotinylated heavy chain) [P82 9-mer … (AR-V7)]", "units-label": "%", "result": -0.1}
{"binder": "QLIAMDSAI (here or on the partner: biotinylated heavy chain) [P22 9-mer … (SLC45A3-ELK4 fusion)]", "units-label": "%", "result": 0}

Pending binder:
Look up and report measured exchange rate with Pos for this entry: LMAQRLLLR (here or on the partner: biotinylated heavy chain) [P97 9-mer … (FOXRED2-TXN2 fusion)] 0.1
